The molecules listed here are annotated with their pKi.
# Target of assay: 5-hydroxytryptamine receptor 1A (Homo sapiens, UniProt P08908)
# Assay protocol: Displacement of [3H]8-OH-DPAT from human recombinant 5HT1A receptor expressed in HEK293 cells
Please treat pKi as minus the base-10 logarithm of the molar concentration.

Previously resolved entries follow.
# Compound structure, pKi
measured = [
    ("O=C1Cc2ccccc2N1C/C=C/CN1CCN(c2cccc3ccccc23)CC1", 7.41),
    ("O=C1Cc2ccccc2N1CC#CCN1CCN(c2cccc3ccccc23)CC1", 7.59),
    ("O=C1c2ccccc2CN1CCCCN1CCN(c2ccccc2)CC1", 6.44),
    ("O=C1Cc2ccccc2N1Cc1ccc(CN2CCN(c3cccc4ccccc34)CC2)cc1", 6.74),
]

We now examine a further molecule.
Input: Give its pKi value. Item: O=C1Cc2ccccc2N1CCCCCN1CCN(c2cccc3[nH]cnc23)CC1
Output: 7.74

====

# Target of assay: 5-hydroxytryptamine receptor 1A (Homo sapiens)
# Sequence (P08908 whole entry): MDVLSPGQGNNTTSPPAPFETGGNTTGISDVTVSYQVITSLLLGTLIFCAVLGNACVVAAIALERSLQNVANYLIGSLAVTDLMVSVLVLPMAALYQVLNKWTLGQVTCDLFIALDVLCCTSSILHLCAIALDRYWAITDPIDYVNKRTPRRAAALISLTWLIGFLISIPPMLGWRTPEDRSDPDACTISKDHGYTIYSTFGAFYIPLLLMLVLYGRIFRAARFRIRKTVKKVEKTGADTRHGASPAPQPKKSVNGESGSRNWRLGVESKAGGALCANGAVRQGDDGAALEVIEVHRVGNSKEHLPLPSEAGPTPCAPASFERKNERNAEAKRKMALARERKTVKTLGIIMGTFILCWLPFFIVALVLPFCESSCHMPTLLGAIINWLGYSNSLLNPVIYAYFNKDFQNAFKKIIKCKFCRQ
# Assay protocol: Displacement of [3H]8-OH-DPAT from human recombinant 5HT1A receptor expressed in HEK293 cells
pKi: −log10 of the molar value.
The compounds listed here are annotated with their pKi.

# Compound, pKi
rows = [
    ("O=C1Cc2ccccc2N1CCCCN1CCCC(c2ccccc2)C1 (stereo not drawn)", "< 6.00"),
    ("O=C1c2ccccc2CN1CCCCCN1CCN(c2ccccc2)CC1", "< 6.00"),
]

We now examine a further compound.
Input: Give its pKi value. Item: O=C1Cc2ccccc2N1CCCCN1CCC(c2ccccc2)CC1
Output: < 6.00

====

# Target of assay: 5-hydroxytryptamine receptor 7 (Homo sapiens)
# Sequence (P34969 whole entry): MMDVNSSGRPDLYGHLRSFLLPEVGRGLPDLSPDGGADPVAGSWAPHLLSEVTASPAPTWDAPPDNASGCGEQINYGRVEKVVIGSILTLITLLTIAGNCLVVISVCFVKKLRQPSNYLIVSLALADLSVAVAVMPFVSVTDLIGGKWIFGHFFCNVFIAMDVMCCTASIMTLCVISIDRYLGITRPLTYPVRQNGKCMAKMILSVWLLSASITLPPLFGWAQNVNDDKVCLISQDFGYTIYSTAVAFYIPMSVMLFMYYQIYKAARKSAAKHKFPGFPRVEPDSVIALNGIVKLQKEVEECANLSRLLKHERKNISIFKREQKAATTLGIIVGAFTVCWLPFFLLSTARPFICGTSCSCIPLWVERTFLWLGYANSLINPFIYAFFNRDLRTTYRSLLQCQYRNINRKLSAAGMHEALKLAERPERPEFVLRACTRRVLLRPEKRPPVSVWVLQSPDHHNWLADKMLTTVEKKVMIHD
# Assay protocol: Displacement of [3H]LSD from human recombinant 5HT7 receptor expressed in CHOK1 cells
The compounds listed here are annotated with their Ki.

Previously resolved entries follow.
# Compound structure, Ki
data = [
    ("O=C1Cc2ccccc2N1CC#CCN1CCN(c2cccc3ccccc23)CC1", "> 1000 nM"),
    ("O=C1c2ccccc2CN1CCCCN1CCN(c2ccccc2)CC1", "> 1000 nM"),
]

We now examine a further compound.
Input: Give its Ki value. Item: O=C1Cc2ccccc2N1Cc1cccc(CN2CCN(c3cccc4ccccc34)CC2)c1
Output: > 1000 nM

Provenance of the data: ChEMBL document CHEMBL1153441
